Test: Rectal circulation: Cephalothin disappeared by absorption (Examples 10-14, 16-18)
Details: rat, in vivo
Description: The experiments were conducted similarly as in Example 1. […] Each sample was diluted and the quantity of Cephalothin disappeared was determined by UV-spectrophotometer of high-speed liquid chromatography.
property-label: Cephalothin disappeared by absorption, Osmotic pressure (%) X 4

{"molecule": "CCC(=O)C(=O)O", "measured-result": 30.9}

(I) O=C(O)CCCCCC(=O)O
(II) O=C(O)CN(CC(=O)O)CC(O)CN(CC(=O)O)CC(=O)O
Inquiry: Which record shows the lower Cephalothin disappeared by absorption, Osmotic pressure (%) X 4: the first, I , or the second, II ? Returns: label corresponding to the selected item.
Reply text: I

(P) O=C([O-])C(=O)C(=O)[O-].[Na+].[Na+] [Sodium ketomalonate, sodium ketomalonate]
(Q) O=C(O)CN(CC(=O)O)C1CCCCC1N(CC(=O)O)CC(=O)O (stereo not drawn) [CyDTA, trans-cyclohexanediaminetetraacetic acid]
(R) CC(=O)OCC1=C(C(=O)O)N2C(=O)[C@@H](NC(=O)Cc3cccs3)[C@H]2SC1 [Cephalothin.Na, reference compound]
Inquiry: Sort these molecules on Cephalothin disappeared by absorption, Osmotic pressure (%) X 4 so the largest reading comes first. List each label, following the requested order.
Reply text: Q, P, R
(Q: 32.3%, P: 19.6%, R: 3.1%)

(I) CCCC(=O)C(=O)O
(II) CCC(C(=O)O)C(=O)O
Inquiry: Which record shows the lower Cephalothin disappeared by absorption, Osmotic pressure (%) X 4: the first, I , or the second, II ? Returns: label corresponding to the selected item.
Reply text: I

---

assay: Rectal circulation: Cephalothin disappeared by absorption (Examples 10-14, 16-18); settings: Table 4; promoter 0.1% W/V; 0.1% W/V Cephalothin.Na; isotonic; after one hour
property-label: Cephalothin disappeared by absorption, Osmotic pressure (%) X 1

{"compound": "O=C(O)CCCC(=O)O", "measured-result": 5.7}
{"compound": "O=C(O)/C=C(\\CC(=O)O)C(=O)O [Trans-aconitic acid, trans-aconitic acid]", "measured-result": 10.5}
{"compound": "O=C(O)CN(CCN(CC(=O)O)CC(=O)O)CC(=O)O", "measured-result": 9.4}
{"compound": "O=C([O-])C(=O)[O-].[Na+].[Na+] [Sodium oxalate, sodium oxalate]", "measured-result": 6.6}

---

assay: Rectal circulation with fatty acids as promoters (Example 15, Example 1 repeated); settings: Table 9; fatty acid 0.1 W/V %; Example 1 repeated; X 4
property-label: medicine disappeared by absorption, Osmotic pressure X 4 (percents)
Field format: number, assumed percents, no unit text.

Worked examples follow.
{"compound": "CCCCCC(=O)[O-].[Na+] [Sodium caproate, sodium caproate]", "measured-result": 17.2}
{"compound": "CCCCCCCCCC(=O)[O-].[Na+] [Sodium caprate, sodium caprate]", "measured-result": 8.6}
{"compound": "CCCCCCCCCCCC(=O)[O-].[Na+] [Sodium laurate, sodium laurate]", "measured-result": 6.5}

Inquiry: Given CCCCCCCC(=O)[O-].[Na+] [Sodium caprylate, sodium caprylate] , state its recorded medicine disappeared by absorption, Osmotic pressure X 4.
Reply text: 13.0

---

experiment: Rectal circulation: Cephalothin disappeared by absorption (Examples 10-14, 16-18); settings: rat, in vivo
property-label: Cephalothin disappeared by absorption, Osmotic pressure (%) X 1

Worked examples follow.
{"molecule": "CCC(C(=O)O)C(=O)O [Ethylmalonic acid, ethylmalonic acid]", "value-units": "%", "measured-result": 12.3}
{"molecule": "CC(=O)CCC(=O)O [Levulinic acid, levulinic acid]", "value-units": "%", "measured-result": 11.9}
{"molecule": "CCC(=O)C(=O)O [α-ketobutyric acid]", "value-units": "%", "measured-result": 11.2}
{"molecule": "O=C(O)CNCC(=O)O [Iminodiacetic acid, iminodiacetic acid]", "value-units": "%", "measured-result": 7.1}
{"molecule": "CCCC(=O)C(=O)O [α-ketovaleric acid]", "value-units": "%", "measured-result": 9.8}

(P) O=C(O)CN(CC(=O)O)CC(O)CN(CC(=O)O)CC(=O)O [DTPA-OH, diaminopropanoltetraacetic acid]
(Q) CC(=O)OCC1=C(C(=O)O)N2C(=O)[C@@H](NC(=O)Cc3cccs3)[C@H]2SC1 [Cephalothin.Na, reference compound]
Inquiry: Which record shows the lower Cephalothin disappeared by absorption, Osmotic pressure (%) X 1: the first, P , or the second, Q ? Returns: label corresponding to the selected item.
Reply text: Q

---

Experiment: Rectal circulation: Cephalothin disappeared by absorption (Examples 10-14, 16-18)
Details: rat, in vivo
Protocol: The experiments were conducted similarly as in Example 1. […] Each sample was diluted and the quantity of Cephalothin disappeared was determined by UV-spectrophotometer of high-speed liquid chromatography.
property-label: Cephalothin disappeared by absorption, Osmotic pressure (%) X 4

{"molecule": "O=C(O)CCC(=O)O [Succinic acid]", "measured-result": 24.0}
{"molecule": "CC(=O)C(=O)[O-].[Na+] [Sodium pyruvate, sodium pyruvate]", "measured-result": 23.1}

(A) O=C(O)CNCC(=O)O [Iminodiacetic acid, iminodiacetic acid]
(B) CC(=O)CCC(=O)O [Levulinic acid, levulinic acid]
Inquiry: Which record shows the lower Cephalothin disappeared by absorption, Osmotic pressure (%) X 4: the first, A , or the second, B ? Returns: label corresponding to the selected item.
Reply text: A
(A: 17.0%, B: 34.3%)
